# Target Under Test: T1, Eaf3 chromo barrel domain (1–113 aa) (S. cerevisiae, UniProt Q12432 1-113)
# T1 sequence (looked up): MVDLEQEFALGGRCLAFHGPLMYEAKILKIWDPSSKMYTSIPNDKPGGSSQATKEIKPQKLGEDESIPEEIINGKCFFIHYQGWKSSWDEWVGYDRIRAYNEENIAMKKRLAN
# Assay Text: NMR titration
pKd: −log10 of the molar value. Square brackets hold non-standard residues; d marks the D form. Ends that are not written are not given here. Lys(Me3) = C[N+](C)(C)CCCC[C@H](N)C(=O)O

Binder | pKd
ART[Lys(Me3)]QTARKS [H3K4me3 peptide (1–10 aa)] | 2.52 to 3.00
ATGGV[Lys(Me3)]KPHRYR [H3K36me3 peptide (31–42 aa)] | 2.47 to 2.74
KRHR[Lys(Me3)]VLRDN [H4K20me3 peptide (16–25 aa)] | 2.40 to 2.52
ATGGVCKPHRYR (not fully specified (residue 6)) [H3KC36me3 peptide (31–42 aa)] | 2.15 to 2.30
